Tested on: NCI-H1793
Test: relative viability (nuclei count vs DMSO), 5 days (fraction); higher = more cells survive
Conditions: first compound 0.5 µM
Below, each of the molecules is paired with its reported relative viability value.
Lab note: jot down the number only; don't add units.

Completed entries (count: 3):
[[record]]
molecule = "COc1cc2nccc(Oc3ccc(NC(=O)Nc4cc(C)on4)c(Cl)c3)c2cc1OC [Tivozanib] + Cc1cc(Nc2cc(N3CCN(C)CC3)nc(Sc3ccc(NC(=O)C4CC4)cc3)n2)n[nH]1 [Tozasertib] (partner 0.1 µM)"
reportedvalue = 0.359

[[record]]
molecule = "COc1cc2nccc(Oc3ccc(NC(=O)Nc4cc(C)on4)c(Cl)c3)c2cc1OC [Tivozanib] + O=C(c1cc(Cc2n[nH]c(=O)c3ccccc23)ccc1F)N1CCN(C(=O)C2CC2)CC1 [Olaparib] (partner 8 µM)"
reportedvalue = 0.879

[[record]]
molecule = "Nc1ccn([C@@H]2O[C@H](CO)[C@@H](O)[C@@H]2O)c(=O)n1 [Cytarabine] + Cc1cc(Nc2cc(N3CCN(C)CC3)nc(Sc3ccc(NC(=O)C4CC4)cc3)n2)n[nH]1 [Tozasertib] (partner 0.1 µM)"
reportedvalue = 0.332


# input for lookup
Reported relative viability ( COc1cc2nccc(Oc3ccc(NC(=O)Nc4cc(C)on4)c(Cl)c3)c2cc1OC [Tivozanib] + COc1cc2c(Oc3ccc(NC(=O)C4(C(=O)Nc5ccc(F)cc5)CC4)cc3F)ccnc2cc1OCCCN1CCOCC1 [Foretinib] (partner 0.25 µM) ) = 0.776

###

Below, each of the compounds is paired with its reported relative viability value.
Tested on: EKVX
Experiment: relative viability (nuclei count vs DMSO), 5 days (fraction); higher = more cells survive
Conditions: first compound 1.265 µM
Lab note: jot down the number only; don't add units.

[[record]]
compound = "Cc1sc2c(c1C)C(c1ccc(Cl)cc1)=N[C@@H](CC(=O)OC(C)(C)C)c1nnc(C)n1-2 [JQ1] + Nc1nc2[nH]cc(CCc3ccc(C(=O)N[C@@H](CCC(=O)O)C(=O)O)cc3)c2c(=O)[nH]1 [Pemetrexed] (partner 0.2 µM)"
subjectoftest = "EKVX"
reportedvalue = 0.362


Reported relative viability ( Cc1sc2c(c1C)C(c1ccc(Cl)cc1)=N[C@@H](CC(=O)OC(C)(C)C)c1nnc(C)n1-2 [JQ1] + O=C(c1cc(Cc2n[nH]c(=O)c3ccccc23)ccc1F)N1CCN(C(=O)C2CC2)CC1 [Olaparib] (partner 8 µM) ) = 0.78

###

Test system: NCI-H3122
Test: relative viability (nuclei count vs DMSO), 5 days (fraction); higher = more cells survive
Conditions: first compound 15.81 µM
Mark Y only for relative viability values smaller than 1; exact matches and larger values are N.

[[record]]
compound = "O=C(O)CCCCC(CCSCc1ccccc1)SCc1ccccc1 (configuration not stated) [CPI-613] + Cc1nc(NC(=O)N2CCC[C@H]2C(N)=O)sc1-c1ccnc(C(C)(C)C(F)(F)F)c1 [Alpelisib] (partner 2 µM)"
classname = "Y"

[[record]]
compound = "O=C(O)CCCCC(CCSCc1ccccc1)SCc1ccccc1 (configuration not stated) [CPI-613] + CC(C)C[C@H](NC(=O)[C@H](Cc1ccccc1)NC(=O)c1cnccn1)B(O)O [Bortezomib] (partner 0.002 µM)"
classname = "N"

[[record]]
compound = "O=C(O)CCCCC(CCSCc1ccccc1)SCc1ccccc1 (configuration not stated) [CPI-613] + CCNC(=O)c1noc(-c2cc(C(C)C)c(O)cc2O)c1-c1ccc(CN2CCOCC2)cc1 [Luminespib] (partner 0.01 µM)"
classname = "Y"

[[record]]
compound = "O=C(O)CCCCC(CCSCc1ccccc1)SCc1ccccc1 (configuration not stated) [CPI-613] + O=C(CCCCCCC(=O)Nc1ccccc1)NO [Vorinostat] (partner 1 µM)"
classname = "Y"


We next turn to a different compound, shown below.
**Query** Does the reported relative viability of the following compound sit strictly below 1? O=C(O)CCCCC(CCSCc1ccccc1)SCc1ccccc1 (configuration not stated) [CPI-613] + CC1(C)CCC(c2ccc(Cl)cc2)=C(CN2CCN(c3ccc(C(=O)NS(=O)(=O)c4ccc(N[C@H](CCN5CCOCC5)CSc5ccccc5)c(S(=O)(=O)C(F)(F)F)c4)cc3)CC2)C1 [Navitoclax] (partner 0.5 µM)
**Result** N

###

Test system: HCC-366
Test: relative viability (nuclei count vs DMSO), 5 days (fraction); higher = more cells survive
Conditions: first compound 0.000632 µM
parameter: relative viability
Lab note: jot down the number only; don't add units.

Reported relative viability ( CC(=O)O[C@@]12CO[C@@H]1C[C@H](O)[C@@]1(C)C(=O)[C@H](O)C3=C(C)[C@@H](OC(=O)[C@H](O)[C@@H](NC(=O)OC(C)(C)C)c4ccccc4)C[C@@](O)([C@@H](OC(=O)c4ccccc4)[C@H]21)C3(C)C [Docetaxel] + CC1(C)CCC(c2ccc(Cl)cc2)=C(CN2CCN(c3ccc(C(=O)NS(=O)(=O)c4ccc(N[C@H](CCN5CCOCC5)CSc5ccccc5)c(S(=O)(=O)C(F)(F)F)c4)cc3)CC2)C1 [Navitoclax] (partner 0.5 µM) ) = 0.969

###

Tested on: LC-2-ad
Experiment: relative viability (nuclei count vs DMSO), 5 days (fraction); higher = more cells survive
Details: first compound 0.02 µM
parameter: relative viability
Lab note: jot down the number only; don't add units.

Completed entries (count: 5):
[[record]]
molecule = "CC(=O)O[C@@]12CO[C@@H]1C[C@H](O)[C@@]1(C)C(=O)[C@H](O)C3=C(C)[C@@H](OC(=O)[C@H](O)[C@@H](NC(=O)OC(C)(C)C)c4ccccc4)C[C@@](O)([C@@H](OC(=O)c4ccccc4)[C@H]21)C3(C)C [Docetaxel] + CC(=O)c1c(C)c2cnc(Nc3ccc(N4CCNCC4)cn3)nc2n(C2CCCC2)c1=O [Palbociclib] (partner 0.5 µM)"
subjectoftest = "LC-2-ad"
parameter = "relative viability"
reportedvalue = 0.233

[[record]]
molecule = "CC(=O)O[C@@]12CO[C@@H]1C[C@H](O)[C@@]1(C)C(=O)[C@H](O)C3=C(C)[C@@H](OC(=O)[C@H](O)[C@@H](NC(=O)OC(C)(C)C)c4ccccc4)C[C@@](O)([C@@H](OC(=O)c4ccccc4)[C@H]21)C3(C)C [Docetaxel] + Nc1ncn([C@H]2C[C@H](O)[C@@H](CO)O2)c(=O)n1 [Decitabine] (partner 2 µM)"
subjectoftest = "LC-2-ad"
parameter = "relative viability"
reportedvalue = 0.272

[[record]]
molecule = "CC(=O)O[C@@]12CO[C@@H]1C[C@H](O)[C@@]1(C)C(=O)[C@H](O)C3=C(C)[C@@H](OC(=O)[C@H](O)[C@@H](NC(=O)OC(C)(C)C)c4ccccc4)C[C@@](O)([C@@H](OC(=O)c4ccccc4)[C@H]21)C3(C)C [Docetaxel] + CS(=O)(=O)CCNCc1ccc(-c2ccc3ncnc(Nc4ccc(OCc5cccc(F)c5)c(Cl)c4)c3c2)o1 [Lapatinib] (partner 2 µM)"
subjectoftest = "LC-2-ad"
parameter = "relative viability"
reportedvalue = 0.0888

[[record]]
molecule = "CC(=O)O[C@@]12CO[C@@H]1C[C@H](O)[C@@]1(C)C(=O)[C@H](O)C3=C(C)[C@@H](OC(=O)[C@H](O)[C@@H](NC(=O)OC(C)(C)C)c4ccccc4)C[C@@](O)([C@@H](OC(=O)c4ccccc4)[C@H]21)C3(C)C [Docetaxel] + CC(=O)Nc1cccc(-n2c(=O)n(C3CC3)c(=O)c3c(Nc4ccc(I)cc4F)n(C)c(=O)c(C)c32)c1 [Trametinib] (partner 0.02 µM)"
subjectoftest = "LC-2-ad"
parameter = "relative viability"
reportedvalue = 0.226

[[record]]
molecule = "CC(=O)O[C@@]12CO[C@@H]1C[C@H](O)[C@@]1(C)C(=O)[C@H](O)C3=C(C)[C@@H](OC(=O)[C@H](O)[C@@H](NC(=O)OC(C)(C)C)c4ccccc4)C[C@@](O)([C@@H](OC(=O)c4ccccc4)[C@H]21)C3(C)C [Docetaxel] + CC(C)C[C@H](NC(=O)[C@H](Cc1ccccc1)NC(=O)c1cnccn1)B(O)O [Bortezomib] (partner 0.002 µM)"
subjectoftest = "LC-2-ad"
parameter = "relative viability"
reportedvalue = 0.11


# input for lookup
Reported relative viability ( CC(=O)O[C@@]12CO[C@@H]1C[C@H](O)[C@@]1(C)C(=O)[C@H](O)C3=C(C)[C@@H](OC(=O)[C@H](O)[C@@H](NC(=O)OC(C)(C)C)c4ccccc4)C[C@@](O)([C@@H](OC(=O)c4ccccc4)[C@H]21)C3(C)C [Docetaxel] + CS(=O)(=O)N1CCN(Cc2cc3nc(-c4cccc5[nH]ncc45)nc(N4CCOCC4)c3s2)CC1 [Pictilisib] (partner 1 µM) ) = 0.0847

###

Tested on: Calu-6
Assay: relative viability (nuclei count vs DMSO), 5 days (fraction); higher = more cells survive
Conditions: first compound 0.05 µM
Mark yes (1) only for relative viability values smaller than 0.8; exact matches and larger values are no (0).

[[record]]
compound = "Nc1ccn([C@@H]2O[C@H](CO)[C@@H](O)[C@@H]2O)c(=O)n1 [Cytarabine] + CC1(C)CCC(c2ccc(Cl)cc2)=C(CN2CCN(c3ccc(C(=O)NS(=O)(=O)c4ccc(N[C@H](CCN5CCOCC5)CSc5ccccc5)c(S(=O)(=O)C(F)(F)F)c4)cc3)CC2)C1 [Navitoclax] (partner 0.5 µM)"
classname = "no (0)"

[[record]]
compound = "COc1cc2nccc(Oc3ccc(NC(=O)Nc4cc(C)on4)c(Cl)c3)c2cc1OC [Tivozanib] + COc1cc2c(Oc3ccc(NC(=O)C4(C(=O)Nc5ccc(F)cc5)CC4)cc3F)ccnc2cc1OCCCN1CCOCC1 [Foretinib] (partner 0.25 µM)"
classname = "no (0)"

[[record]]
compound = "COc1cc2nccc(Oc3ccc(NC(=O)Nc4cc(C)on4)c(Cl)c3)c2cc1OC [Tivozanib] + CS(=O)(=O)N1CCN(Cc2cc3nc(-c4cccc5[nH]ncc45)nc(N4CCOCC4)c3s2)CC1 [Pictilisib] (partner 1 µM)"
classname = "no (0)"

[[record]]
compound = "Nc1ccn([C@@H]2O[C@H](CO)[C@@H](O)[C@@H]2O)c(=O)n1 [Cytarabine] + CS(=O)(=O)N1CCN(Cc2cc3nc(-c4cccc5[nH]ncc45)nc(N4CCOCC4)c3s2)CC1 [Pictilisib] (partner 1 µM)"
classname = "yes (1)"

[[record]]
compound = "Nc1ccn([C@@H]2O[C@H](CO)[C@@H](O)[C@@H]2O)c(=O)n1 [Cytarabine] + CS(=O)(=O)CCNCc1ccc(-c2ccc3ncnc(Nc4ccc(OCc5cccc(F)c5)c(Cl)c4)c3c2)o1 [Lapatinib] (partner 2 µM)"
classname = "no (0)"


**Query** Does the reported relative viability of the following compound sit strictly below 0.8? COc1cc2nccc(Oc3ccc(NC(=O)Nc4cc(C)on4)c(Cl)c3)c2cc1OC [Tivozanib] + CC(C)C[C@H](NC(=O)[C@H](Cc1ccccc1)NC(=O)c1cnccn1)B(O)O [Bortezomib] (partner 0.002 µM)
**Result** no (0)

**Query** Does the reported relative viability of the following compound sit strictly below 0.8? Nc1ccn([C@@H]2O[C@H](CO)[C@@H](O)[C@@H]2O)c(=O)n1 [Cytarabine] + CC(C)C[C@H](NC(=O)[C@H](Cc1ccccc1)NC(=O)c1cnccn1)B(O)O [Bortezomib] (partner 0.002 µM)
**Result** yes (1)

**Query** Does the reported relative viability of the following compound sit strictly below 0.8? Nc1ccn([C@@H]2O[C@H](CO)[C@@H](O)[C@@H]2O)c(=O)n1 [Cytarabine] + C[C@@H](Oc1cc(-c2cnn(C3CCNCC3)c2)cnc1N)c1c(Cl)ccc(F)c1Cl [Crizotinib] (partner 1 µM)
**Result** yes (1)

**Query** Does the reported relative viability of the following compound sit strictly below 0.8? COc1cc2nccc(Oc3ccc(NC(=O)Nc4cc(C)on4)c(Cl)c3)c2cc1OC [Tivozanib] + CS(=O)(=O)CCNCc1ccc(-c2ccc3ncnc(Nc4ccc(OCc5cccc(F)c5)c(Cl)c4)c3c2)o1 [Lapatinib] (partner 2 µM)
**Result** no (0)

// data source = the supplement of paper PMC10307832
